- Tested on: A498
- protocol: NCI tumour cell line growth inhibition, 48 h
Active and inactive are the calls of the source. No stated cut-off is given here; in the data, active = GI50 up to about 1.1 µM and inactive = higher.
Recorded GI50 for the following molecules

# molecule, GI50
measured = [
    ("Oc1cc(-c2ccccc2Cl)nc2cc3c(cc12)OCO3", "0.116 µM (active)"),
    ("NNC(=S)N/N=C/C(Cl)=C(\\Cl)C(=O)O", "> 100 µM (inactive)"),
    ("CCN(CC)CCNc1nc2ccc([N+](=O)[O-])cc2[n+]([O-])n1", "28.4 µM (inactive)"),
    ("COc1ccc(NCc2cc(OC)cc(OC)c2)cc1", "27.5 µM (inactive)"),
    ("CC1(C)CC(=O)C(CC2C(=O)c3ccccc3C2=O)C(=O)C1C(=O)C(=O)Nc1cccc2ccc(O)cc12 (centres undefined)", "20.8 µM (inactive)"),
    ("CN(/N=C/c1ccc(Cl)cc1)C1=NCCCCN1", "56.9 µM (inactive)"),
    ("CC(=O)OC1C/C(C)=C/CCC(C)/C=C/C2(C)CCC(C(C)(C)O)C12 (centres undefined)", "> 100 µM (inactive)"),
    ("COC(=O)C1=C(C)N(NC(=O)c2ccccc2)C(C)(O)C12CCOC2=O (centres undefined)", "> 100 µM (inactive)"),
    ("CS(=O)(=O)OC1CCC2(C#N)CCC1C2=O (centres undefined)", "> 100 µM (inactive)"),
    ("Cc1ccc(/C=C/C(=O)C(C)C)cc1", "> 100 µM (inactive)"),
    ("O=C(O)C/C=C/CC(=O)O", "> 100 µM (inactive)"),
    ("O=C1CC(c2c(-c3ccccc3)[nH]c3ccccc23)C(=O)N1c1ccccc1 (centres undefined)", "> 100 µM (inactive)"),
    ("COC(=O)CC1CC2(C(=O)OC)c3[nH]c4ccccc4c3CCN2C1=O (centres undefined)", "> 100 µM (inactive)"),
    ("CCOc1ccc(C2c3[nH]c4ccccc4c3CCN2C(=O)c2cccs2)cc1 (centres undefined)", "7.4 µM (inactive)"),
    ("CC1(C)C2CCC3=C(CCC4(C)C5C[C@](C)(C(=O)O)CC[C@]5(C)CC[C@]34C)[C@@]2(C)CC[C@@H]1O (some centres undefined)", "26.5 µM (inactive)"),
    ("O=C(CN1CCN(Cc2ccccc2)CC1)c1ccc2[nH]c(=O)oc2c1", "> 100 µM (inactive)"),
    ("CC(C)[Si](OCC1CC(C#N)OC(C)(C)O1)(C(C)C)C(C)C (centres undefined)", "6.3 µM (inactive)"),
    ("COc1c(-c2nc3ccc(N4CCN(C)CC4)cc3[nH]2)cc(OC)c2[nH]c(COC(C)=O)nc12", "> 100 µM (inactive)"),
    ("CCOC(=O)C1=C(C)N(NC(=O)Nc2ccccc2)C2(N)N(NC(=O)Nc3ccccc3)C(C)=C(C(=O)OCC)C12C(=O)OCC (centres undefined)", "28.2 µM (inactive)"),
    ("O=C1C(=O)N(C2CCCCC2)C(=S)N1C1CCCCC1", "> 100 µM (inactive)"),
    ("COc1ccc(N2C(=O)C3c4[nH]c5ccc(C)cc5c4C4CCC(C)CC4C3C2=O)cc1 (centres undefined)", "21.6 µM (inactive)"),
    ("CC(C)=CCC[C@@H](C)C1=C(O)C(=O)C(C)=C(N)C1=O", "39.8 µM (inactive)"),
    ("CC(CCN)(CCN)[N+](=O)[O-]", "> 100 µM (inactive)"),
    ("CNC1=Nc2ccccc2C(=S)N2CSC[C@@H]12", "> 100 µM (inactive)"),
    ("C=CC(O)C#Cc1cnc(OC)nc1OC (centres undefined)", "16.3 µM (inactive)"),
    ("O=NC1C(Cl)C2CC1C1C(Br)C(Br)CC21 (centres undefined)", "> 100 µM (inactive)"),
    ("CCCn1c(SCC)c2ccccc2c1-c1nc(F)nc(F)n1", "> 100 µM (inactive)"),
    ("O=C(O)CN1CCN2CCCCCN(CC1)CCN(CC(=O)O)CC2", "> 100 µM (inactive)"),
    ("CC(C)CCCC(C)[C@H]1CCC2[C@H]3C(CC[C@@]21C)[C@@]1(C)CCC=C[C@]12C[C@@H]2[C@@H]3O (some centres undefined)", "> 100 µM (inactive)"),
    ("O=C(Nc1ccccc1)c1cc2cc(CCl)ccc2oc1=O", "13 µM (inactive)"),
    ("CN(C)CCC(=O)c1ccccc1", "> 71.6 µM (inactive)"),
    ("O=C(O)C(Cc1c[nH]c2ccccc12)C(=O)NO (centres undefined)", "> 100 µM (inactive)"),
    ("O=c1c2cc(-c3ccccc3)cnc2sn1-c1ccc(Br)cc1", "> 100 µM (inactive)"),
    ("CCN(CC)CCN1C=CC(C)C(C(=O)O)C1C(N)=O (centres undefined)", "> 100 µM (inactive)"),
]
